- Tested on: HSV-1
- method: HSV Antiviral (ELISA) Assay
- Assay type: cell-based, herpes simplex virus type 1
- assay conditions: Human alphaherpesvirus 1, Vero, Vero cells, HSV-1; read-out: IC50 Ug/ml HSV
Reported IC50 is given for each of the following compounds.

[
  {
    "compound": "CC(=O)Nc1ccc(NC(=S)Nc2ccc(N(C)C3CCN(C)CC3)c(Cl)c2)cc1 [Example 841]",
    "IC50": "> 50 µg/mL"
  },
  {
    "compound": "CC(=O)Nc1ccc(NC(=S)Nc2cc(Cl)c(-n3cccc3)cc2Oc2ccc(Cl)cc2)cc1 [Example 900]",
    "IC50": "> 10 µg/mL"
  },
  {
    "compound": "CCCN(CCC)c1ccc(NC(=S)Nc2ccc(NC(C)=O)cc2)cc1Cl [Example 272]",
    "IC50": "> 50 µg/mL"
  },
  {
    "compound": "CC(=O)Nc1ccc(NC(=S)Nc2ccc(Oc3ccc(Cl)cc3S(=O)(=O)O)c(Cl)c2)cc1 [Example 262]",
    "IC50": "> 50 µg/mL"
  },
  {
    "compound": "CC(=O)Nc1ccc(NC(=S)Nc2ccc(CCO)c(Cl)c2)cc1 [Example 864]",
    "IC50": "> 10 µg/mL"
  },
  {
    "compound": "CC(=O)Nc1ccc(NC(=S)Nc2ccc(NC(=O)CN3CCOCC3)c(Cl)c2)cc1 [Example 366]",
    "IC50": "> 10 µg/mL"
  },
  {
    "compound": "CC(=O)Nc1ccc(NC(=S)Nc2ccc(-c3ccno3)c(Cl)c2)cc1 [Example 924]",
    "IC50": "> 10 µg/mL"
  },
  {
    "compound": "COC(=O)COc1cc(OC)c(NC(=S)Nc2ccc(NC(C)=O)cc2)cc1Cl [Example 217]",
    "IC50": "> 50 µg/mL"
  },
  {
    "compound": "COc1ccc(NC(=S)Nc2ccc(NC(C)=O)cc2)cc1C(F)(F)F [Example 290]",
    "IC50": "> 50 µg/mL"
  }
]
